biological target: Glycine N-methyltransferase (Homo sapiens); test: Inhibition of N-terminal His-tagged human recombinant Glycine-N-methyltransferase (1 to 295 residues) expressed in Escherichia coli using glycine and SAM as substrate incubated for 30 mins by HTRF assay; details: read-out: IC50
Sequence (Q14749 whole entry, the tested form may be a part): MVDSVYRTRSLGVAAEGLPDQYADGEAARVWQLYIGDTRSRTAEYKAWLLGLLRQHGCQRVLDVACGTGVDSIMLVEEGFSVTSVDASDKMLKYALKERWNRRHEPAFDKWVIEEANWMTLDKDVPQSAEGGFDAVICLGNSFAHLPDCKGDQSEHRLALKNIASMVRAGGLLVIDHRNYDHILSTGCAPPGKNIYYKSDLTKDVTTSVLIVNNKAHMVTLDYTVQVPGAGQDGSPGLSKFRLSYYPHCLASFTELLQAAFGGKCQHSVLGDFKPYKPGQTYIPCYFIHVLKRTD
endpoint: pIC50
Just so you know, pIC50 here is -log10 of the concentration in molar units; reply with that number alone.

Solved cases (2 shown):
>>> observed("Nc1ncnc2c1ncn2[C@@H]1O[C@H](CNCCc2ccccc2)[C@@H](O)[C@H]1O")
3.68
>>> observed("Nc1ncnc2c1ncn2[C@@H]1O[C@H](C(=O)N2CCN(CC(=O)O)CC2)[C@@H](O)[C@H]1O")
3.62

Q: Fill in the blank: the reported pIC50 of Nc1ncnc2c1ncn2[C@@H]1O[C@H](CSCc2ccc3ccccc3c2)[C@@H](O)[C@H]1O is ____.
A: 6.59

Q: Field entry: Nc1ncnc2c1ncn2[C@@H]1O[C@H](CSCCc2c[nH]nn2)[C@@H](O)[C@H]1O
A: 6.41

Q: Field entry: Nc1ncnc2c1ncn2[C@@H]1O[C@H](CSCc2cccc(C(=O)O)c2)[C@@H](O)[C@H]1O
A: 8.07

// data source = ChEMBL document CHEMBL4834465
